// provenance: the Human Domainome abundance scans (Beltran et al. 2025)

B1: Homeobox protein cut-like 1, residues 941 to 1008; numbered along this chain, P39880 (parent)
chain: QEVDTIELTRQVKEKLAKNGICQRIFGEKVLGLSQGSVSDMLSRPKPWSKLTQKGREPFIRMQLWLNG

- Variants of: B1
- Assay Explanation: abundance fitness (aPCA) (normalised: wild type 0, dead -1); higher = more abundant; growth selection in yeast, the domain comes from the species named
- Condition: Homo sapiens
Kindly return MET if reported abundance fitness is no lower than -0.09; return NOT MET if it is lower.

(Q) Identify whether the reported abundance fitness of the following variant is -0.09 or greater: N19K
(A) MET

(Q) Tell me whether abundance fitness is at least -0.09 here: K13H
(A) NOT MET

(Q) Reported abundance fitness reaches at least -0.09 for S34Q ?
(A) NOT MET

(Q) Could you verify whether the entry E28K shows abundance fitness of no less than -0.09?
(A) NOT MET

(Q) Quick check, abundance fitness >= -0.09? I21D
(A) NOT MET

(Q) // inclusive: abundance fitness at least -0.09? input: S39T
(A) MET

(Q) In plain terms: is recorded abundance fitness at least -0.09 for E28R ?
(A) MET

(Q) I'd appreciate it if you could say whether L33G has abundance fitness at least equal to -0.09.
(A) NOT MET

(Q) Hi, just wondering whether S43E shows abundance fitness of -0.09 or higher.
(A) MET

(Q) Could you verify whether the entry K13R shows abundance fitness of no less than -0.09?
(A) NOT MET

(Q) Kindly determine if abundance fitness recorded for S43I is above or exactly -0.09.
(A) NOT MET

(Q) Reported abundance fitness reaches at least -0.09 for V3K ?
(A) NOT MET

(Q) hey, is abundance fitness for this one >= -0.09? K29T
(A) MET

(Q) Please indicate if the recorded abundance fitness for L42N meets or exceeds -0.09.
(A) NOT MET

(Q) # check: abundance fitness of L8V is greater than or equal to -0.09
(A) MET

(Q) Could you please find out whether F26V has abundance fitness that meets -0.09 or exceeds it?
(A) NOT MET

(Q) Tell me whether abundance fitness is at least -0.09 here: W48S
(A) NOT MET

(Q) Confirm if abundance fitness reported for the variant V30F is -0.09 or above.
(A) NOT MET

(Q) Is abundance fitness for G36E at or above -0.09?
(A) MET

(Q) Does the variant E14C have recorded abundance fitness that is -0.09 or more?
(A) MET

(Q) Assess whether reported abundance fitness for K50S sits at -0.09 or higher.
(A) MET

(Q) # check: abundance fitness of E2N is greater than or equal to -0.09
(A) NOT MET
